Values were extracted from the supplement of paper PMC13380429.

tested on: Vero E6 infected with SARS-CoV-2; assay: morphology score (similarity to uninfected cells); higher = more like uninfected cells; conditions: 24 h
Kindly supply the reported morphology score values for the records listed here.

Given the entry NC(=O)c1cccc(-c2cccc(OC(=O)NC3CCCCC3)c2)c1 (10 µM) , what morphology score was observed with Vero E6 infected with SARS-CoV-2?
0.00303

Please state recorded morphology score (tested on Vero E6 infected with SARS-CoV-2) of CC(C[N+](C)(C)C)OC(N)=O (centres undefined) [bethanechol] (10 µM)
0.0417

Give the reported morphology score for CN(C)CCOC(c1ccc(Cl)cc1)c1ccccn1 (centres undefined) [carbinoxamine] (10 µM) (system: Vero E6 infected with SARS-CoV-2).
0.075

Item: CC(C(=O)O)c1cccc(C(=O)c2ccccc2)c1 (centres undefined) [ketoprofen] (10 µM) Test system: Vero E6 infected with SARS-CoV-2 Read-out: morphology score Value: ?
0.173

Lab request: please report morphology score under test system Vero E6 infected with SARS-CoV-2 for O=C1NCCN1CCN1CCC(c2cn(-c3ccc(F)cc3)c3ccc(Cl)cc23)CC1 [sertindole] (0.833333 µM)
-0.0791

Which measured morphology score belongs to O=C(Nc1ccc(Cl)nc1)c1ccc(Cl)cc1 (10 µM) , tested on Vero E6 infected with SARS-CoV-2?
0.18

# returns recorded morphology score (system: Vero E6 infected with SARS-CoV-2) for CCC(=O)OCC(=O)[C@@]1(OC(=O)CC)[C@H](C)C[C@H]2[C@H]3[C@H]([C@@H](O)C[C@@]21C)[C@@]1(C)C=CC(=O)C=C1C[C@H]3Cl [alclometasone-dipropionate] (10 µM)
0.139

Hello, I am looking for reported morphology score with Vero E6 infected with SARS-CoV-2 for CC(C(=O)O)c1ccc(CC2CCCC2=O)cc1 (centres undefined) [loxoprofen] (10 µM) . Could you help?
-0.0253

Kindly state the measured morphology score obtained for COc1cccc(OC)c1-c1ccc(C[C@H](NC(=O)c2c(Cl)cccc2Cl)C(=O)O)cc1 (10 µM) with Vero E6 infected with SARS-CoV-2.
-0.141

Give recorded morphology score with Vero E6 infected with SARS-CoV-2 for the following molecule: CC(C)=CCC/C(C)=C/CC/C(C)=C/CCC(=O)OC/C=C(\C)CCC=C(C)C [geranyl-farnesylacetate] (10 µM)
-0.0168

Notebook: pull reported morphology score for Vero E6 infected with SARS-CoV-2, entry CCC(c1ccccc1)c1c(O)c2ccccc2oc1=O (centres undefined) [phenprocoumon] (10 µM)
0.0901

Quick check: morphology score on Vero E6 infected with SARS-CoV-2, item CCOC(=O)[C@H](CCc1ccccc1)N[C@@H](C)C(=O)N1[C@H](C(=O)O)C[C@H]2CCCC[C@@H]21 [trandolapril] (10 µM) ?
0.00679

Request: morphology score, test system Vero E6 infected with SARS-CoV-2, entry COc1ccc2c(c1OC)C(=O)O[C@@H]2[C@H]1c2c(cc3c(c2OC)OCO3)CCN1C [noscapine] (10 µM)
-0.105

Checklist item: morphology score tested on Vero E6 infected with SARS-CoV-2, entry CC(C)OC(=O)OCOP(=O)(CO[C@H](C)Cn1cnc2c(N)ncnc21)OCOC(=O)OC(C)C [tenofovir-disoproxil] (10 µM) , value?
-0.00661

GET /values?readout=morphology score&system=Vero E6 infected with SARS-CoV-2&item= CC(C)c1ccccc1S(=O)(=O)c1cc(N)c2ncccc2c1[N+](=O)[O-] (10 µM)
0.225

Recall the recorded morphology score for Oc1nc(O)c2cn[nH]c2n1 [oxypurinol] (10 µM) with Vero E6 infected with SARS-CoV-2 and state it.
-0.157

Request body: readout morphology score, system Vero E6 infected with SARS-CoV-2, query COc1ccc(CC(=O)NC(/N=C(\NC#N)Nc2cccc3ncccc23)C(C)(C)C)cc1OC (centres undefined) (10 µM) . Return the value.
0.297

Any idea what morphology score came out for NC1CCN(c2cccc(Cl)n2)CC1 (10 µM) on Vero E6 infected with SARS-CoV-2?
-0.122

Provide the documented morphology score with Vero E6 infected with SARS-CoV-2 as the system for COc1ccc(NC(=O)c2ccc(-c3ccc(-c4noc(C)n4)cc3C)cc2)cc1N1CCN(C)CC1 (0.833333 µM)
0.0674

Give recorded morphology score with Vero E6 infected with SARS-CoV-2 for the following molecule: CC(=O)NC[C@H]1CN(c2ccc(N3CCN(C(=O)CO)CC3)c(F)c2)C(=O)O1 [eperezolid] (10 µM)
0.0417

Enter reported morphology score observed with Vero E6 infected with SARS-CoV-2 for C[C@@H]1COC(Nc2ccc3ncnc(Nc4ccc(OCc5nccs5)c(Cl)c4)c3c2)=N1 (10 µM)
-0.156

Recall the recorded morphology score for CCC[C@H](N[C@H]1CCc2cc(F)cc(F)c2C1)C(=O)Nc1cn(C(C)(C)CNCC(C)(C)C)cn1 (10 µM) with Vero E6 infected with SARS-CoV-2 and state it.
0.0166

// fetch Vero E6 infected with SARS-CoV-2 morphology score for CC(C)CNc1nc(-c2cccc3ncccc23)cn2c(-c3ccc(C(=O)NC4CC4)cc3)cnc12 (10 µM)
-0.233

Request body: readout morphology score, system Vero E6 infected with SARS-CoV-2, query C#C[C@]1(O)CC[C@H]2[C@@H]3CCC4=CC(=O)CC[C@@H]4[C@H]3C(=C)C[C@@]21CC [etonogestrel] (10 µM) . Return the value.
0.249
